Entries annotated with measured remaining at 4 h, 10 μM
- assay.info: in vitro
- assay.setup: human, plasma, Stability in human plasma, % Remaining at 4 h
Output spec: scalar in %, unitless text.

CC(C)[N+](C)(CCOC(=O)C1c2ccccc2Oc2ccccc21)C(C)C [Propantheline, propantheline bromide, reference compound] ... 0.21

Inquiry: Assign remaining at 4 h, 10 μM to the following record: `O=C(O)c1cc2ccccc2n1Cc1cccc2ccccc12`
Reply text: 97.6

---

- assay.info: in vitro
- Type: in vitro ADME
- assay.setup: human, plasma, pH 7.4, Fraction bound fb
experimental.readout: fraction unbound at 6 h, 5 μM
// return just the number, without any unit appended

Inquiry: Assign fraction unbound at 6 h, 5 μM to the following record: CC(C)NCC(O)COc1cccc2ccccc12 (centres unmarked) [Propranolol, reference compound]
Reply text: 0.142

---

- system: S. aureus cystathionine-γ-lyase (bCSE) (Staphylococcus aureus, UniProt A0A0H3K724)
- Sequence (A0A0H3K724 entry or part of it): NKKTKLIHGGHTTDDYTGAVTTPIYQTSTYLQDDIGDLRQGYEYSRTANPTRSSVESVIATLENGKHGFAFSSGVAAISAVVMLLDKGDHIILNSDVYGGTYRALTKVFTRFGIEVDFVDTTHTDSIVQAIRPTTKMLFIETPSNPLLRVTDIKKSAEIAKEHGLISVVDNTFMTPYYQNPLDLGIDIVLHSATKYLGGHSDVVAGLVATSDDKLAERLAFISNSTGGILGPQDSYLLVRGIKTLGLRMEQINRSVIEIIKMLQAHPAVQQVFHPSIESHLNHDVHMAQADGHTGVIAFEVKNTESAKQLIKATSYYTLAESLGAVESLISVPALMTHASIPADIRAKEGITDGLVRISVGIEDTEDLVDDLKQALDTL
- assay.info: IC50 assay: inhibition of H2S production by purified bCSE, WSP5 fluorescent probe
- Type: biochemical
- assay.setup: IC50 biochemical assay bCSE, purified bCSE 0.02 μM, 100 μM L-cysteine, WSP5 probe, mean ± SD
experimental.readout: pIC50
Scale for pIC50: -log10 of concentration given in mol/L; no unit attached.

# count of solved cases: 6
O=C(O)c1cc2ccccc2n1Cc1cccc2ccccc12 ... 4.19
C#CC[C@H](N)C(=O)O (racemic) [PAG, DL-propargylglycine, reference compound] ... 4.61
O=C(O)c1cccn1Cc1cccc2ccccc12 ... 3.54
O=C(O)c1cc2ccccc2n1Cc1ccc2ccccc2c1 ... 4.15
O=C(O)c1ccc2ccn(Cc3cccc4ccccc34)c2c1 [Compound 4a] ... 3.86
O=C(O)c1ccc2ccn(Cc3cccc4ccccc34)c2c1 [Compound 3a] ... 4.10

Inquiry: Assign pIC50 to the following record: `O=C(O)c1ccc2ccn(Cc3ccc4ccccc4c3)c2c1`
Reply text: 3.83

Inquiry: Assign pIC50 to the following record: `Cc1oc(Cn2ccc3ccc(Br)cc32)cc1C(=O)O`
Reply text: 3.84

Inquiry: Assign pIC50 to the following record: `O=C(O)c1ccc2c(ccn2Cc2ccc3ccccc3c2)c1`
Reply text: 3.96

---

- assay.info: Metabolic stability in rat liver microsomes
- assay.setup: rat, microsomes, pH 7.4, CLint, rat liver microsomes, cofactor UDPGA
experimental.readout: microsomal CLint at 1 µM (µL/min/mg)
Output spec: scalar in µL/min/mg, unitless text.

Inquiry: Assign microsomal CLint at 1 µM to the following record: `O=c1ccc2ccc(O)cc2o1`
Reply text: 180

---

Entries annotated with measured IC50
- system: human cystathionine-γ-lyase (hCSE) (Homo sapiens, UniProt P32929)
- Construct: His6-TEV (N, cleaved yes); host or cells: E. coli
- Sequence (P32929 whole entry): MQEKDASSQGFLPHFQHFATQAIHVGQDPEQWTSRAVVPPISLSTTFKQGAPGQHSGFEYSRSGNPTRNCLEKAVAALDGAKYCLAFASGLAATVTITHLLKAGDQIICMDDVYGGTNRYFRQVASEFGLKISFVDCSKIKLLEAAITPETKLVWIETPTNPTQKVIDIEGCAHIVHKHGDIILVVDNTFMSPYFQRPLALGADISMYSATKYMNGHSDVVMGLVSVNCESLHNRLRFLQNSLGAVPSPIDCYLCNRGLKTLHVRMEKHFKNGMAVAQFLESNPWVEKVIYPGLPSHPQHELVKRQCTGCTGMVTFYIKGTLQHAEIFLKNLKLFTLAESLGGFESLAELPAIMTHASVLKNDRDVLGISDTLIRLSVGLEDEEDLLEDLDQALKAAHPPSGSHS
- assay.info: IC50 assay: inhibition of H2S production by purified hCSE, WSP5 fluorescent probe
- Format: biochemical
- assay.setup: purified hCSE 0.02 μM, 100 μM L-cysteine, WSP5 probe, mean ± SD; read-out: IC50 biochemical assay hCSE

O=C(O)c1cccn1Cc1cccc2ccccc12 [Compound 5a] ... > 500 µM
O=C(O)c1cc2ccccc2n1Cc1ccc2ccccc2c1 [Compound 2b] ... 285 µM
O=C(O)c1cccn1Cc1ccc2ccccc2c1 [Compound 5b] ... > 500 µM
O=C(O)c1ccc2ccn(Cc3cccc4ccccc34)c2c1 [Compound 4a] ... > 500 µM

Please look at the following compound next.
Inquiry: Assign IC50 to the following record: O=C(O)c1ccc2ccn(Cc3cccc4ccccc34)c2c1 [Compound 3a]
Reply text: 472 µM
